- SYSTEM NAME: T1, HLA-B*2705 heavy chain with human beta 2 microglobulin on splenocytes of HLA-B27/hb2m transgenic mice (human)
- T1 construct: whole, on cells; also called TG; HLA-B*27+ transgenic splenocytes
- ASSAY TEXT: flow cytometry, HLA-B27/hb2m transgenic mouse splenocytes, antibody 1 ug/ml
OBSERVATION TYPE: MFI (MFI)
Give your result in MFI as a bare value.

>  <BINDER>
H4H2480N (antibody, V domains shown) VH: QVQLQQWGAGLLKPSETLSLTCAVYGGSFSGYYWSWIRQTPGKGLEWIGEISHSGNNNYNPSLKSRVTMSKDTSKNQFSLKLSSVTAADTAVYYCARIQLWLRGNDYYGMDVWGQGITVTVSS VL: DIQMTQSPSSLSASVGDRVTITCRASQGIRNDLGWYQQKPGKAPKRLIYAASSLQGGVPSRFSGSGSGTEFTLTISSLQPEDFATYYCLQHNSYPWTFGQGTKVEIK

>  <OBSERVED RESULT>
337

$$$$
>  <BINDER>
H4H2559P (antibody, V domains shown) VH: QVQLVQSGAEVKKPGASVKVSCKASGYTFTDYFLHWVRQAPGQGLEWVGWINPNSGGTNFAQKFQGRVTMTRDTSISTAYMDLSRLRSDDTAVYYCARKAGYTSSWFDYWGQGTLVTVSS VL: DIVMTQSPDSLAVSLGERATINCKSSQSILYSFNNKNYLAWYQQKIGQPPMLLIYWASTRESGVPDRFSGSGSGTDFTLTISRLQAEDVAVYYCQQYYSSITFGQGTRLEIK

>  <OBSERVED RESULT>
498

$$$$

For the next question, use this binder.
get_value(item= H4H2534S (antibody, V domains shown) VH: EVQLVESGPGLVKPAQTLSLTCTVSGGSINSGGNYWSWIRQHPGKGLEWIGYIYYSGNTYYNPSLKSRVTISVDMSKNQFSLKLRSVTAADTAVYFCARDPRGITGTHHFDCWGQGTLVTVSS VL: EIVLTQSPGTLSLSPGERATLSCRTSQSVSSRYLAWYQQKPGQAPRLLIYDASSRATGIPDRFSGSGSGTDFTLTISRLEPEDFAVYYCQQFGPSLFTFGPGTKVDIK , readout=MFI) returns 555
